The following molecules are listed with their measured Disease Control (%) SEPTTR-184 1DP values.
test system: Zymoseptoria tritici (SEPTTR-184); experiment: Cyp51 dsRNA tile (fragment) foliar application bioassay (Example 6); format: in vivo; details: 1 day protectant; rate 12.5 ppm; average of 2 trials
Your answer is read as %, so omit the unit and give the number.

{"molecule": "MgCyp51-T5: dsRNA tile of Zymoseptoria tritici Cyp51, 133 bp, location 1316-1448 (nucleic acid, listed as Zymoseptoria tritici) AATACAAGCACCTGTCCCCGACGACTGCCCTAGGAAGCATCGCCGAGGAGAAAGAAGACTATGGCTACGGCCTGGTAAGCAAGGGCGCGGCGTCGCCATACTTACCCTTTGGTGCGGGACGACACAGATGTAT", "result": 66}

Recorded Disease Control (%) SEPTTR-184 1DP of MgCyp51-T6: dsRNA tile of Zymoseptoria tritici Cyp51, 280 bp, location 881-1160 (nucleic acid, listed as Zymoseptoria tritici) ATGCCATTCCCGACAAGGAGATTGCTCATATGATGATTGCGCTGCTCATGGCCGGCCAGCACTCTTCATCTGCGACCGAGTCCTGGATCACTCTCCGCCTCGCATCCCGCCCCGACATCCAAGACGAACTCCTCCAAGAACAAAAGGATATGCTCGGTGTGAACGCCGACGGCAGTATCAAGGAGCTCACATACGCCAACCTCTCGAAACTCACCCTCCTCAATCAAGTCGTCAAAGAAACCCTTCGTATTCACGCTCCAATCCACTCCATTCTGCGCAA , please.
55

Recorded Disease Control (%) SEPTTR-184 1DP of YFP: non-target dsRNA control (YFP, yellow fluorescent protein coding region) (nucleic acid, double-stranded RNA; synthesized partial coding region) TGTAGAAATCCTTCAGCTCGGGGCCGTACTTGGCGAAGCACTGGGCGCCGTAGGTCAGGGTGGTCACCAGGGTGCTCCAGGGCACGGGCACATCGCCGGTGGTGCAGATGAACTGGGCATCCACCTTGCCCACGCTGGCATCGCCGTAGCCCTTGCCGCGGATGCTGAAGGTGTGGCCATCCACATTGCCCTCCATCTCCACCACGTAGGGGATCTTGCCGTGGAACAGCAGGGCGCCGCTGGAGCCCAT , please.
15

Recorded Disease Control (%) SEPTTR-184 1DP of MgCyp51-T11: dsRNA tile of Zymoseptoria tritici Cyp51, 172 bp, location 775-946 (nucleic acid, listed as Zymoseptoria tritici) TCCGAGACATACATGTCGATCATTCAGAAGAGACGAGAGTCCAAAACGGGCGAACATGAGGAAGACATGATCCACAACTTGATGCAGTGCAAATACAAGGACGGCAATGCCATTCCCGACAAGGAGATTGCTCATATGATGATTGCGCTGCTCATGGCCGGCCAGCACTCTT , please.
61

Reference source: patent US20180320179A1
